Values from PubChem BioAssay (NCI)

Test system: MALME-3M melanoma
Assay Protocol: NCI tumour cell line growth inhibition, 48 h
Give measured GI50 for each item. Keep answers brief.

{"Molecule": "Cc1cc2c(cc1Cl)SC(C(=O)c1ccc(Cl)c(Cl)c1)NS2(=O)=O (stereo not given)", "GI50": "45.3 µM"}
{"Molecule": "Fc1ccc(-c2nn3c(COc4ccc(Cl)cc4Cl)nnc3s2)cc1Oc1ccccc1", "GI50": "17 µM"}
{"Molecule": "Cc1cc2c(cc1Cl)N1C(=O)NS(=O)(=O)N=C1NS2(=O)=O", "GI50": "> 100 µM"}
{"Molecule": "CC/C(=N/N=C(N)N)c1ccc(NC(=O)Nc2ccc(/C(CC)=N/N=C(N)N)cc2)cc1", "GI50": "8.24 µM"}

Prompt: Which value of GI50 has been reported for COc1ccc2c(c1)C(=O)c1c-2c(N2CCN(C(=O)CCNCCNCCO)CC2)nc2ccccc12 in the records?
Completion: 26.6 µM

* * *

Give measured TGI for each item. Keep answers brief.
Tested on: HCC-2998 colon
Assay Protocol: NCI tumour cell line growth inhibition, 48 h

Example results:
{"Compound": "COc1ccc(C(=C2C(=O)N(c3ccccc3)C(=O)C2=C(C)C)c2ccc(OC)cc2)cc1", "TGI": "> 52 µM"}
{"Compound": "CC(=O)O[C@H]1C(=O)[C@@]2(C)C(C(OC(=O)c3ccccc3)[C@]3(O)CC(OC(=O)C(O)C(NC(=O)c4ccccc4)c4cccc(Cl)c4)C(C)=C1C3(C)C)[C@]1(OC(C)=O)CO[C@@H]1C[C@@H]2O (some centres undefined)", "TGI": "> 10 µM"}
{"Compound": "O=C1c2ccccc2C(=O)c2c1ccc1c2N=C(c2ccc(Br)cc2)CC(c2cccc3ccccc23)N1 (centres undefined)", "TGI": "> 100 µM"}

Let us examine a further case.
Prompt: Which value of TGI has been reported for N=c1oc2ccc(Cl)cc2cc1C(N)=O in the records?
Completion: 47.4 µM

* * *

Tested on: M14 melanoma
Assay Protocol: NCI tumour cell line growth inhibition, 48 h
Property Label: TGI

Example results:
{"Compound": "CSc1nc2nc(C(O)C(O)C(O)CO)cnc2c(=O)[nH]1 (stereo not given)", "TGI": "> 100 µM"}
{"Compound": "COC(=O)/C(=N/NC(C)(C)C)C(C(=O)OC)C(=O)C(=O)Nc1nc2ccc([N+](=O)[O-])cc2s1 (stereo not given)", "TGI": "> 100 µM"}
{"Compound": "C=C1C(=O)C2(C)OC2(C)C1C(=O)O (stereo not given)", "TGI": "> 100 µM"}

# batch: return TGI for each of the 2 compounds below
1. COC(=O)[C@@H]1COC(C(C)(C)C)N1C(=O)C(c1ccccc1)c1ccccc1 (stereo not given in full)
2. O=C1CC[C@@H](NC(=O)Cc2ccccc2)C(=O)N1

Completion:
1. > 100 µM
2. > 100 µM

# batch: return TGI for each of the 5 compounds below
1. C=C(CO)[C@H]1Oc2ccc(C(C)=O)cc2[C@@H]1O
2. O=C(O)COc1ccc(C(=O)/C(SS/C(C(=O)c2ccc(OCC(=O)O)c(Cl)c2Cl)=C2\C=C(c3ccccc3Cl)SS2)=C2/C=C(c3ccccc3Cl)SS2)c(Cl)c1Cl
3. C=C(C)CC(C)(c1cc2ccccc2n1C)N1CCOCC1 (stereo not given)
4. O=C1OCCC[C@H]2O[C@@H](COCc3ccccc3)C[C@@H]12
5. Cc1c2cc[n+](C)cc2c(C)c2c1oc1ccccc12

Completion:
["> 100 µM", "> 68 µM", "> 100 µM", "> 100 µM", "31.5 µM"]

* * *

Test system: BT-549 breast
Assay Protocol: NCI tumour cell line growth inhibition, 48 h
Give measured GI50 for each item. Keep answers brief.

Example results:
{"Molecule": "FC(F)(F)c1ccc(NCc2nc3ccccc3[nH]2)cc1", "Subject Of Test": "BT-549 breast", "GI50": "31.1 µM"}
{"Molecule": "CCc1ccc2c(c1)C(=O)c1c-2n(CCCN)c(=O)c2cc([N+](=O)[O-])ccc12", "Subject Of Test": "BT-549 breast", "GI50": "1.68 µM"}

# batch: return GI50 for each of the 5 molecules below
1. Cc1cc2c(cc1Cl)SC(C(=O)c1ccc(Cl)c(Cl)c1)NS2(=O)=O (configuration not stated)
2. COc1ccc2c(c1)C(=O)c1c-2c(N2CCN(C(=O)CCNCCNCCO)CC2)nc2ccccc12
3. COc1ccc2nc3cc(Cl)ccc3c(Nc3cc(C(C)C)c(O)cc3C)c2c1
4. COc1cc(NC(=O)c2ccccc2Nc2ccnc(C(F)(F)F)c2)cc(OC)c1OC
5. Cn1cc(C2=C(c3c(S(C)=O)n(C)c4ccccc34)C(=O)NC2=O)c2ccccc21 (configuration not stated)

Completion:
29.8 µM
7.14 µM
0.588 µM
43.5 µM
4.88 µM

* * *

System: IGROV1 ovarian
Assay Protocol: NCI tumour cell line growth inhibition, 48 h
Give measured TGI for each item. Keep answers brief.

{"Molecule": "COc1cc2c(cc1O)C1CC(CC3CCCCN31)OC(=O)/C=C\\c1ccc(O)c-2c1 (stereo not given)", "Result": "> 100 µM"}

# batch: return TGI for each of the 7 molecules below
1. NCCNCCCNC(=O)c1cc(-c2ccccc2)nc2ccccc12
2. C[N+](C)(C)CCN[N+]1(C)CCCc2ccccc21 (stereo not given)
3. O=C1N(CN2CCOCC2)CN(CN2CCOCC2)C(=O)N1Cc1ccc(CN2C(=O)N(CN3CCOCC3)CN(CN3CCOCC3)C2=O)cc1
4. CCOC(=O)CC(=O)CSc1c(-c2ccccc2)c(=O)n(-c2ccccc2)c(=S)n1-c1ccccc1
5. N#CCC1(c2ccc(Cl)cc2)NC(=O)c2ccccc21 (stereo not given)
6. COc1cccc(/C=C\c2ccnc3ccccc23)c1
7. O=C(/C=C/c1ccccc1)OCC1=C[C@@H](O)[C@@H]2C=CO[C@@H](OC3OC(CO)C(O)C(O)C3O)[C@H]12 (stereo not given in full)

Completion:
1. > 100 µM
2. > 100 µM
3. > 100 µM
4. > 100 µM
5. > 100 µM
6. > 10 µM
7. > 100 µM

# batch: return TGI for each of the 2 molecules below
1. Nc1ccc(C(=O)Nc2ccccc2N)cc1
2. CCCCCCC1CC(=O)C1(Cl)Cl (stereo not given)

Completion:
1: > 100 µM; 2: 61.8 µM

* * *

Tested on: RPMI-8226 leukemia
Assay Protocol: NCI tumour cell line growth inhibition, 48 h
Property Label: TGI

{"Molecule": "COc1c2ccccc2c(O)c2c(=O)ccn(C)c12", "Result": "> 100 µM"}
{"Molecule": "CNC(C)Cc1ccccc1OC (configuration not stated)", "Result": "> 100 µM"}
{"Molecule": "Cc1ccc(/C=C2\\NC(=S)N(CN3CCCCC3)C2=O)cc1", "Result": "> 100 µM"}
{"Molecule": "COCCOC1=C(Cl)C(=O)c2c(O)ccc(O)c2C1=O", "Result": "1.75 µM"}

# batch: return TGI for each of the 4 molecules below
1. Cc1c/c(=N/NC(=O)c2ccncc2)n2nc(N)sc2n1
2. O=S(=O)(Oc1ccc2ccccc2c1-c1c(OS(=O)(=O)C(F)(F)F)ccc2ccccc12)C(F)(F)F
3. CC(=O)Oc1ccc(/C=C/C(=O)OCCOC(=O)/C=C/c2ccc(OC(C)=O)c(OC(C)=O)c2)cc1OC(C)=O
4. COc1ccc2c(c1)/C(=C\c1c(Cl)n(-c3ccccc3)c3ccccc13)C(=O)N2

Completion:
1: > 100 µM; 2: > 100 µM; 3: 24.5 µM; 4: 45.4 µM

# batch: return TGI for each of the 7 molecules below
1. COc1cc(Cn2c(SCC(=O)Nc3ccc(Cl)cc3)nc3ccccc3c2=O)cc(OC)c1OC
2. COC(=O)/C=C1\CCCN1CCc1cc2c(cc1CC#N)OCO2
3. Cc1c(N=Nc2ccc(Cl)cc2)c(C)n(C2OC(CO)C(O)C(O)C2O)c(=S)c1C#N (configuration not stated)
4. COc1ccc(/C=C2\N=C(c3ccccc3)OC2=O)cc1OC(C)=O
5. CSc1nc2nc(C(O)C(O)C(O)CO)cnc2c(=O)[nH]1 (configuration not stated)
6. CC[C@@]1(O)C(=O)NCc2c1cc1n(c2=O)Cc2cc3c(NC(C)=O)cccc3nc2-1
7. CCCCCCC1CC(=O)C1(Cl)Cl (configuration not stated)

Completion:
1: > 100 µM; 2: > 100 µM; 3: 50.3 µM; 4: > 100 µM; 5: > 100 µM; 6: > 100 µM; 7: 2.48 µM

# batch: return TGI for each of the 7 molecules below
1. CC1CC(c2ccc(Cl)c(Cl)c2)=Nc2ccccc2S1 (configuration not stated)
2. C=C1CC(C)(COc2ccc3c(C)cc(=O)oc3c2)OC1=O (configuration not stated)
3. C[n+]1c2ccccc2c(CNC(CS)C(=O)O)c2ccccc21 (configuration not stated)
4. CC1CC(Br)C(=O)O1 (configuration not stated)
5. C#CC(O)/C=C/C(O)CCCC(O)CC#CC(O)C#CC(O)CCCC(O)/C=C/CCCCCC(=O)CCCCCCCCCCCCCC(O)C(O)C#CC(=O)O (configuration not stated)
6. Cc1cc(-c2cscn2)c(O)c([N+](=O)[O-])c1
7. CCCCCC(=Nc1n[nH]nc1C(N)=O)OCC

Completion:
["> 100 µM", "2.57 µM", "50.5 µM", "> 100 µM", "> 50 µM", "> 100 µM", "> 100 µM"]
